B1: OR4K15 (parent)
chain: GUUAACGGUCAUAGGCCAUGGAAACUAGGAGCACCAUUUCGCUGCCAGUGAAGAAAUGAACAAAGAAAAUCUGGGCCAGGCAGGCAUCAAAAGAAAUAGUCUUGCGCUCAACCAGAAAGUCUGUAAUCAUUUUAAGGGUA

# Variants of: B1
# test: self-cleavage, relative activity (ratio to wild type); higher = more cleavage; in vitro, sequencing; the parent is a self-cleaving ribozyme
recordedMetric: self-cleavage
// no unit, no text: just the number

variantNotation	reading
A51C U131C	1.28
G106C A116G	0.01
A54U U103G	0.04
U39C A62U	1.95
A59U A126G	1.26
A30U A91G	1.35
A94G C107G	0.01
A59U U131A	0.84
U37C A55G	1.59
A86U C112U	0.02

Task: Query (variant): A24U U87A ; field requested: self-cleavage
Output: 1.8
